Tested on: MDA-MB-231 complex spheroids, growth inhibition
TEST DETAILS: Anticancer human tumor MDA-MB-231 cell line growth inhibition [Asc];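 note: spheroids exposed to compounds for 7 days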
TEST CONDITIONS: second compound 0.03 µM; first compound 0.1 µM; stronger effect = lower value
EXPERIMENTAL ENDPOINT: viability, T/C (%)
# output: bare number, implied unit %

| COMPOUND | TARGET OF ASSAY | READOUT UNIT | viability, T/C |
| --- | --- | --- | --- |
| CNC(C)C(=O)NC1CN(S(=O)(=O)c2cccc(S(=O)(=O)N3CCC4CCC(C(=O)NC(c5ccccc5)c5ccccc5)N4C(=O)C(NC(=O)C(C)NC)C3)c2)CCC2CCC(C(=O)NC(c3ccccc3)c3ccccc3)N2C1=O (stereo not given) + CCN1C(C(=O)NC23CCC(C(=O)O)(CC2)CC3)C(c2cccc(Cl)c2F)C2(C(=O)Nc3cc(Cl)ccc32)C12CCCCC2 | MDA-MB-231 complex spheroids, growth inhibition | % | 1.22 |
| COc1c(OCCCN2CCOCC2)ccc2c3n(c(=NC(=O)c4cnc(N)nc4)nc12)CCN3 + CCN1C(C(=O)NC23CCC(C(=O)O)(CC2)CC3)C(c2cccc(Cl)c2F)C2(C(=O)Nc3cc(Cl)ccc32)C12CCCCC2 | MDA-MB-231 complex spheroids, growth inhibition | % | 49.7 |
| CCN1CCN(Cc2ccc(Nc3ncc(F)c(-c4cc(F)c5nc(C)n(C(C)C)c5c4)n3)nc2)CC1 + CCN1C(C(=O)NC23CCC(C(=O)O)(CC2)CC3)C(c2cccc(Cl)c2F)C2(C(=O)Nc3cc(Cl)ccc32)C12CCCCC2 | MDA-MB-231 complex spheroids, growth inhibition | % | 59 |
| C=CC(=O)N1CCN(c2nc(=O)n(-c3c(C)ccnc3C(C)C)c3nc(-c4c(O)cccc4F)c(F)cc23)C(C)C1 (stereo not given) + CCN1C(C(=O)NC23CCC(C(=O)O)(CC2)CC3)C(c2cccc(Cl)c2F)C2(C(=O)Nc3cc(Cl)ccc32)C12CCCCC2 | MDA-MB-231 complex spheroids, growth inhibition | % | 97.9 |
| C=C(F)C(=O)N1CCN(c2nc(OCC3CCCN3C)nc3c2CCN(c2cccc4cccc(Cl)c24)C3)CC1CC#N (stereo not given) + CCN1C(C(=O)NC23CCC(C(=O)O)(CC2)CC3)C(c2cccc(Cl)c2F)C2(C(=O)Nc3cc(Cl)ccc32)C12CCCCC2 | MDA-MB-231 complex spheroids, growth inhibition | % | 101 |

Q. // lookup viability, T/C for O=C(c1ccc(F)c(F)c1Nc1ccc(I)cc1F)N1CC(O)([C@@H]2CCCCN2)C1 + CCN1C(C(=O)NC23CCC(C(=O)O)(CC2)CC3)C(c2cccc(Cl)c2F)C2(C(=O)Nc3cc(Cl)ccc32)C12CCCCC2
A. 47.6

Q. Any idea what viability, T/C was measured for NC1CCC(NC2CC2c2ccccc2)CC1 (stereo not given) + CCN1C(C(=O)NC23CCC(C(=O)O)(CC2)CC3)C(c2cccc(Cl)c2F)C2(C(=O)Nc3cc(Cl)ccc32)C12CCCCC2 ?
A. 96.2

* * *

Test system: MDA-MB-231 complex spheroids, growth inhibition
TEST DETAILS: Anticancer human tumor MDA-MB-231 cell line growth inhibition [Asc];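 note: spheroids exposed to compounds for 7 days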
TEST CONDITIONS: curve of first compound; second compound 0.1 µM
pIC50: −log10 of the molar value.
Reported pIC50 values follow for various compounds

| COMPOUND | pIC50 |
| --- | --- |
| C=C(F)C(=O)N1CCN(c2nc(OCC3CCCN3C)nc3c2CCN(c2cccc4cccc(Cl)c24)C3)CC1CC#N (configuration not stated) + CNC(C)C(=O)NC1CN(S(=O)(=O)c2cccc(S(=O)(=O)N3CCC4CCC(C(=O)NC(c5ccccc5)c5ccccc5)N4C(=O)C(NC(=O)C(C)NC)C3)c2)CCC2CCC(C(=O)NC(c3ccccc3)c3ccccc3)N2C1=O | > 7.50 |

Please look at the following compound next.
Q. Need pIC50 of COc1c(OCCCN2CCOCC2)ccc2c3n(c(=NC(=O)c4cnc(N)nc4)nc12)CCN3 + CNC(C)C(=O)NC1CN(S(=O)(=O)c2cccc(S(=O)(=O)N3CCC4CCC(C(=O)NC(c5ccccc5)c5ccccc5)N4C(=O)C(NC(=O)C(C)NC)C3)c2)CCC2CCC(C(=O)NC(c3ccccc3)c3ccccc3)N2C1=O , thanks.
A. > 8.50
